Biological target: Indoleamine 2,3-dioxygenase 1 (Homo sapiens)
Test: Inhibition of IFNgamma-stimulated IDO1 in human HeLa cells
Sequence (P14902 whole entry): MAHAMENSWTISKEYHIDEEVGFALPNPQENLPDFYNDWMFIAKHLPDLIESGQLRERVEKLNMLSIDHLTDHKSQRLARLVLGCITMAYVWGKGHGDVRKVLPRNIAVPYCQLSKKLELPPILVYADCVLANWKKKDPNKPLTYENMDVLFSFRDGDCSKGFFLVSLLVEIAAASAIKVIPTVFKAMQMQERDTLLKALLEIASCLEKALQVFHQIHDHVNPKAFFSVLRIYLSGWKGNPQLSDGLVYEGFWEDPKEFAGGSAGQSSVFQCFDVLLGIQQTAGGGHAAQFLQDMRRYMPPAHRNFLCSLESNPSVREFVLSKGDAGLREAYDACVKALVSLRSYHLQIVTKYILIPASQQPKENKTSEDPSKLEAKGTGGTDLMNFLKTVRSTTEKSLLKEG
Please respond with label 1 when measured EC50 is strictly beneath 5 µM, and with label 0 in all other cases.

smiles.structure	assigned.label
CCNCCc1c[nH]c2c1C(=O)C(c1cccnc1)=CC2=O	label 1
CC(C)(C)C(=O)NCCc1c[nH]c2c1C(=O)C(c1cccnc1)=CC2=O	label 1
CC(C)NCCc1c[nH]c2c1C(=O)C(c1cccnc1)=CC2=O	label 1
CN(C)CCc1c[nH]c2c1C(=O)C(c1cccnc1)=CC2=O	label 1
CC(C)(C)CNCCc1c[nH]c2c1C(=O)C(c1cccnc1)=CC2=O	label 1
CCCCNCCc1c[nH]c2c1C(=O)C(c1cccnc1)=CC2=O	label 1
O=C1C=C(c2cccnc2)C(=O)c2c(CCNC3CCCCC3)c[nH]c21	label 1
NCCc1c[nH]c2c1C(=O)C(c1cccnc1)=CC2=O	label 0
CC(=O)NCCc1c[nH]c2c1C(=O)C(c1cccnc1)=CC2=O	label 0
O=C1C=C(c2cccnc2)C(=O)c2c(CCNCCc3ccccc3)c[nH]c21	label 0
CC(C)(C)OC(=O)NCCc1c[nH]c2c1C(=O)C(c1cccnc1)=CC2=O	label 0
CCN(CC)CCc1c[nH]c2c1C(=O)C(c1cccnc1)=CC2=O	label 0

----------
Target: UniProtKB P14902
Assay: Inhibition of recombinant human IDO1 expressed in Escherichia coli at 10 uM relative to control
Sequence (P14902 whole entry, looked up): as the sequence (P14902 whole entry) above
The compounds listed here are annotated with their inhibition.

smiles.structure	unit.label	inhibition
COc1ccc(C2=CC(=O)c3[nH]cc(CCNC(=O)OC(C)(C)C)c3C2=O)cc1	%	34.5
O=C(NCCc1c[nH]c2c1C(=O)C(c1cccnc1)=CC2=O)c1ccccc1	%	65.7
CCNCCc1c[nH]c2c1C(=O)C(c1cccnc1)=CC2=O	%	81.7
O=C1C=C(c2cccnc2)C(=O)c2c(CCNCCc3ccccc3)c[nH]c21	%	68.3
CC(C)(C)OC(=O)NCCc1c[nH]c2c1C(=O)C(c1ccccc1)=CC2=O	%	56.4
CC(=O)NCCc1c[nH]c2c1C(=O)C(c1cccnc1)=CC2=O	%	57.5
NCCc1c[nH]c2c1C(=O)C(c1cccnc1)=CC2=O	%	74.9
CC(C)(C)OC(=O)NCCc1c[nH]c2c1C(=O)C(c1ccncc1)=CC2=O	%	12.4
CN(C)CCc1c[nH]c2c1C(=O)C(c1cccnc1)=CC2=O	%	71.3
CC(C)(C)OC(=O)NCCc1c[nH]c2c1C(=O)C(c1ccc(F)cc1)=CC2=O	%	43.3
CCCCNCCc1c[nH]c2c1C(=O)C(c1cccnc1)=CC2=O	%	79.2
CC(C)NCCc1c[nH]c2c1C(=O)C(c1cccnc1)=CC2=O	%	63.8
Cc1ccc(C2=CC(=O)c3[nH]cc(CCNC(=O)OC(C)(C)C)c3C2=O)cc1	%	25.5
CC(C)(C)CNCCc1c[nH]c2c1C(=O)C(c1cccnc1)=CC2=O	%	79.5
O=C1C=C(c2cccnc2)C(=O)c2c(CCNC3CCCCC3)c[nH]c21	%	65
CC(C)(C)OC(=O)NCCc1c[nH]c2c1C(=O)C(c1ccccc1F)=CC2=O	%	67.3
CC(C)(C)OC(=O)NCCc1c[nH]c2c1C(=O)C(c1cccnc1)=CC2=O	%	66.5
COc1ccccc1C1=CC(=O)c2[nH]cc(CCNC(=O)OC(C)(C)C)c2C1=O	%	63.2
CCN(CC)CCc1c[nH]c2c1C(=O)C(c1cccnc1)=CC2=O	%	64.2
CC(C)(C)C(=O)NCCc1c[nH]c2c1C(=O)C(c1cccnc1)=CC2=O	%	72.3
O=C1C=C(c2cccnc2)C(=O)c2c(CCNS(=O)(=O)c3ccccc3)c[nH]c21	%	59.7

----------
Attribute: pIC50
Biological target: Indoleamine 2,3-dioxygenase 1 (Homo sapiens, UniProt P14902)
Assay: Inhibition of recombinant human IDO1 expressed in Escherichia coli
pIC50: −log10 of the molar value.

smiles.structure	experimental.target	pIC50
CC(C)(C)OC(=O)NCCc1c[nH]c2c1C(=O)C(c1ccccc1F)=CC2=O	Indoleamine 2,3-dioxygenase 1 (Homo sapiens, UniProt P14902)	5.68
CC(C)(C)OC(=O)NCCc1c[nH]c2c1C(=O)C(c1cccnc1)=CC2=O	Indoleamine 2,3-dioxygenase 1 (Homo sapiens, UniProt P14902)	5.72
CCN(CC)CCc1c[nH]c2c1C(=O)C(c1cccnc1)=CC2=O	Indoleamine 2,3-dioxygenase 1 (Homo sapiens, UniProt P14902)	5.65
O=C1C=C(c2cccnc2)C(=O)c2c(CCNS(=O)(=O)c3ccccc3)c[nH]c21	Indoleamine 2,3-dioxygenase 1 (Homo sapiens, UniProt P14902)	5.45
CC(C)(C)CNCCc1c[nH]c2c1C(=O)C(c1cccnc1)=CC2=O	Indoleamine 2,3-dioxygenase 1 (Homo sapiens, UniProt P14902)	6.25
CC(C)(C)OC(=O)NCCc1c[nH]c2c1C(=O)C(c1ccccc1)=CC2=O	Indoleamine 2,3-dioxygenase 1 (Homo sapiens, UniProt P14902)	5.53
O=C1C=C(c2cccnc2)C(=O)c2c(CCNC3CCCCC3)c[nH]c21	Indoleamine 2,3-dioxygenase 1 (Homo sapiens, UniProt P14902)	5.82
O=C1C=C(c2cccnc2)C(=O)c2c(CCNCCc3ccccc3)c[nH]c21	Indoleamine 2,3-dioxygenase 1 (Homo sapiens, UniProt P14902)	5.40
NCCc1c[nH]c2c1C(=O)C(c1cccnc1)=CC2=O	Indoleamine 2,3-dioxygenase 1 (Homo sapiens, UniProt P14902)	6.29
COc1ccccc1C1=CC(=O)c2[nH]cc(CCNC(=O)OC(C)(C)C)c2C1=O	Indoleamine 2,3-dioxygenase 1 (Homo sapiens, UniProt P14902)	5.62
CC(C)NCCc1c[nH]c2c1C(=O)C(c1cccnc1)=CC2=O	Indoleamine 2,3-dioxygenase 1 (Homo sapiens, UniProt P14902)	6.29
CC(=O)NCCc1c[nH]c2c1C(=O)C(c1cccnc1)=CC2=O	Indoleamine 2,3-dioxygenase 1 (Homo sapiens, UniProt P14902)	5.87
CC(C)(C)C(=O)NCCc1c[nH]c2c1C(=O)C(c1cccnc1)=CC2=O	Indoleamine 2,3-dioxygenase 1 (Homo sapiens, UniProt P14902)	6.11
CN(C)CCc1c[nH]c2c1C(=O)C(c1cccnc1)=CC2=O	Indoleamine 2,3-dioxygenase 1 (Homo sapiens, UniProt P14902)	6.30
CCCCNCCc1c[nH]c2c1C(=O)C(c1cccnc1)=CC2=O	Indoleamine 2,3-dioxygenase 1 (Homo sapiens, UniProt P14902)	6.06
CCNCCc1c[nH]c2c1C(=O)C(c1cccnc1)=CC2=O	Indoleamine 2,3-dioxygenase 1 (Homo sapiens, UniProt P14902)	6.80
O=C(NCCc1c[nH]c2c1C(=O)C(c1cccnc1)=CC2=O)c1ccccc1	Indoleamine 2,3-dioxygenase 1 (Homo sapiens, UniProt P14902)	5.68
